- Measured Target: MAP4K4 (h) (Homo sapiens (Human))
- Sequence (O95819 whole entry): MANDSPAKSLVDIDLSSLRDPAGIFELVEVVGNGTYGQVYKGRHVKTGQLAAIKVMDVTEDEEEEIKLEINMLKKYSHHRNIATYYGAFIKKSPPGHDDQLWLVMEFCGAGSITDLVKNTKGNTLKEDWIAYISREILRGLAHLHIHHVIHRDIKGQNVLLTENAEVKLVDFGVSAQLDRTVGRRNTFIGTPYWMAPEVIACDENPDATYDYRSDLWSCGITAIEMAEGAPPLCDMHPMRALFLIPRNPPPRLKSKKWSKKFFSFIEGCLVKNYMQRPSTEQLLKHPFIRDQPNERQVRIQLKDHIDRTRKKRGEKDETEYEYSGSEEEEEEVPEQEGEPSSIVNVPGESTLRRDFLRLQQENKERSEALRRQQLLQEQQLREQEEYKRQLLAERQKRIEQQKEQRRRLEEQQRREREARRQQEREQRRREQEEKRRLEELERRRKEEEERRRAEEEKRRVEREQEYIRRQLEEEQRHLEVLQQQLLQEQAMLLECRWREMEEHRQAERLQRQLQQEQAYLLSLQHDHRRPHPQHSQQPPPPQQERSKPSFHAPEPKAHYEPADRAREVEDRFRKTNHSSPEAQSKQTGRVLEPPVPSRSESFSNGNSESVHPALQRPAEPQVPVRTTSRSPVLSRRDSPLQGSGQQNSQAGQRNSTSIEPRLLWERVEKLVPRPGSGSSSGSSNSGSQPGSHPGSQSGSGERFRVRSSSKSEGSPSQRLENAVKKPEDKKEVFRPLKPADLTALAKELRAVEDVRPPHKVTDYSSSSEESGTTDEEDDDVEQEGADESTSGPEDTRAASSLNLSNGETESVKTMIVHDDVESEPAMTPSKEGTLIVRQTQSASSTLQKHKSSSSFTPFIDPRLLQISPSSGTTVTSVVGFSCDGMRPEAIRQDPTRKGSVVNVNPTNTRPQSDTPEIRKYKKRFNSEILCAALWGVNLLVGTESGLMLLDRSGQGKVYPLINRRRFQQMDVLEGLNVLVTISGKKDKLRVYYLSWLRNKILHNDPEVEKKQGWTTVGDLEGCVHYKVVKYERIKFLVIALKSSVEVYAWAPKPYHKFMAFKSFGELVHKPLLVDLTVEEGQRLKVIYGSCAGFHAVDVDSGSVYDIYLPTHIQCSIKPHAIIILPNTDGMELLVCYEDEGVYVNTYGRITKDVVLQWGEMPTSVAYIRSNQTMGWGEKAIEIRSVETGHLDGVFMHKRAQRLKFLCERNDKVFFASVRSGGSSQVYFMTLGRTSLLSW
- Test Protocol: MAP4K4 Human STE Kinase Enzymatic Radiometric Assay;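 further: kinase activity remaining relative to the DMSO control, IC50 derived from sigmoidal variable-slope curve fits, no preincubation of compound with enzyme before ATP start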
- Type: biochemical
- Run Parameters: ATP 200 μM; 40 min at room temperature
Readout: IC50

Example molecules with recorded IC50:
Input Smiles: CC(C)n1cnc(-c2ccc(F)c(F)c2)c1-c1nc(C(=O)Nc2ccc(N3CCN(C)CC3)cc2)c[nH]1
Measured Target: MAP4K4 (h) (Homo sapiens (Human))
Readout: IC50
Observed Measurement: > 120 nM
//
Input Smiles: CC(C)n1cnc(-c2ccc(F)cc2)c1-c1nc(C(=O)Nc2ccc(N(CCO)CCO)cc2)c[nH]1
Measured Target: MAP4K4 (h) (Homo sapiens (Human))
Readout: IC50
Observed Measurement: 12 to 120 nM
//
Input Smiles: CC(C)n1cnc(-c2ccc(C(F)(F)F)cc2)c1-c1nc(C(=O)Nc2ccc(CCC(=O)O)cc2)c[nH]1
Measured Target: MAP4K4 (h) (Homo sapiens (Human))
Readout: IC50
Observed Measurement: > 120 nM
//
Input Smiles: CC(C)n1cnc(-c2ccc(F)cc2)c1-c1ccc(C(=O)Nc2ccc(N3CCN(C)CC3)cc2)o1
Measured Target: MAP4K4 (h) (Homo sapiens (Human))
Readout: IC50
Observed Measurement: 12 to 120 nM
//
Input Smiles: CC(C)n1cnc(-c2ccc(F)cc2)c1-c1cccc(C(=O)Nc2ccc(CCC(=O)O)cc2)n1
Measured Target: MAP4K4 (h) (Homo sapiens (Human))
Readout: IC50
Observed Measurement: 12 to 120 nM
//
Input Smiles: CC(C)n1cnc(-c2ccc(F)cc2)c1-c1nc(C(=O)Nc2ccc(N3CCN(C)C(=O)C3)cc2)c[nH]1
Measured Target: MAP4K4 (h) (Homo sapiens (Human))
Readout: IC50
Observed Measurement: 12 to 120 nM
//
Input Smiles: CC(C)n1cnc(-c2ccc(F)cc2)c1-c1nc(C(=O)Nc2ccc(CCCCC(=O)O)cc2)c[nH]1
Measured Target: MAP4K4 (h) (Homo sapiens (Human))
Readout: IC50
Observed Measurement: 12 to 120 nM

Next, consider the following molecule.
What value of IC50 has been recorded for this entry: CC(C)n1cnc(-c2ccc(F)cc2)c1-c1nc(C(=O)Nc2ccc(C(=O)O)cc2)c[nH]1
> 120 nM

---

- Measured Target: TNIK(h) (Homo sapiens (Human))
- Test Protocol: TNIK Human STE Kinase Enzymatic Radiometric Assay
- Type: biochemical
- Run Parameters: ATP 70 μM; 40 min at room temperature; read-out: TNIK (IC50)
Readout: IC50

Please review the entries below; each comes with its answer.
Input Smiles: CN1CCN(c2ccc(NC(=O)c3c[nH]c(-c4c(-c5ccc(F)cc5)ncn4CC(C)(C)C)n3)cc2)CC1
Measured Target: TNIK(h) (Homo sapiens (Human))
IC50: 12 to 120 nM
--
Input Smiles: O=C(Nc1ccc(N2CCN(CC(F)(F)F)CC2)cc1)c1c[nH]c(-c2c(-c3ccc(F)cc3)ncn2CC(F)(F)F)n1
Measured Target: TNIK(h) (Homo sapiens (Human))
IC50: 12 to 120 nM

Count: 5. Required value per item: IC50.
1. CC(C)n1cnc(-c2ccc(F)cc2)c1-c1cccc(C(=O)Nc2ccc(N3CCN(C)CC3)cc2)n1
2. CC(=O)N1CCN(c2ccc(NC(=O)c3c[nH]c(-c4c(-c5ccc(F)cc5)ncn4C(C)C)n3)cc2)CC1
3. CC(C)n1cnc(-c2ccc(F)cc2)c1-c1nc(C(=O)Nc2ccc(N3CCN(CC(F)(F)F)CC3)cc2)c[nH]1
4. CN1CCN(c2ccc(NC(=O)c3c[nH]c(-c4c(-c5ccc(F)cc5)ncn4[C@H]4CC[C@@H](O)CC4)n3)cc2)CC1
5. CN1CCN(c2ccc(NC(=O)c3c[nH]c(-c4c(-c5ccc(F)cc5)ncn4CC(F)(F)F)n3)cc2)CC1

1 to 12 nM
1 to 12 nM
12 to 120 nM
12 to 120 nM
12 to 120 nM

---

- Measured Target: UniProtKB Q9UKE5
- Test Protocol: TNIK Human STE Kinase Enzymatic Radiometric Assay
- Type: biochemical
Readout: IC50

# IC50 lookup, item CC(C)n1cnc(-c2ccc(F)c(F)c2)c1-c1nc(C(=O)Nc2ccc(N3CCN(C)CC3)cc2)c[nH]1 [Compound 156]
12 to 120 nM

---

- Measured Target: UniProt Q9UKE5
- Test Protocol: TNIK Human STE Kinase Enzymatic Radiometric Assay
- Type: biochemical
- Run Parameters: ATP 70 μM; 40 min at room temperature; read-out: TNIK (IC50)
For each of the compounds below, state its IC50.

Input Smiles: CC(C)n1cnc(-c2ccc(F)cc2)c1-c1nc(C(=O)Nc2ccc(CCC(=O)O)cc2)c[nH]1
IC50: 12 to 120 nM
--
Input Smiles: CN1[C@@H]2CC[C@H]1CN(c1ccc(NC(=O)c3c[nH]c(-c4c(-c5ccc(F)cc5)ncn4CC(F)(F)F)n3)cc1)C2
IC50: 12 to 120 nM
--
Input Smiles: CN1CCN(c2ccc(NC(=O)c3c[nH]c(-c4ncn(C(F)F)c4-c4ccc(F)cc4)n3)cc2)CC1
IC50: 1 to 12 nM
--
Input Smiles: CC(C)n1cnc(-c2ccc(F)cc2)c1-c1ccc(C(=O)Nc2ccc(N3CCN(C)CC3)cc2)o1
IC50: 1 to 12 nM
--
Input Smiles: CC(C)n1cnc(-c2ccc(F)cc2)c1-c1nc(C(=O)Nc2ccc(N3CCN(S(N)(=O)=O)CC3)cc2)c[nH]1
IC50: 12 to 120 nM

Consider the following items and state reported IC50 for each.
1. CC(C)n1cnc(-c2ccc(Cl)cc2)c1-c1nc(C(=O)Nc2ccc(CCC(=O)O)cc2)c[nH]1
2. CC(C)n1cnc(-c2ccc(C(F)(F)F)cc2)c1-c1nc(C(=O)Nc2ccc(N3CCN(CCO)CC3)cc2)c[nH]1

1. 1 to 12 nM
2. > 120 nM

---

Can you tell me pIC50 for the items I'm about to list?
- Measured Target: TNIK(h) (Homo sapiens (Human), UniProt Q9UKE5)
- Sequence (Q9UKE5 whole entry): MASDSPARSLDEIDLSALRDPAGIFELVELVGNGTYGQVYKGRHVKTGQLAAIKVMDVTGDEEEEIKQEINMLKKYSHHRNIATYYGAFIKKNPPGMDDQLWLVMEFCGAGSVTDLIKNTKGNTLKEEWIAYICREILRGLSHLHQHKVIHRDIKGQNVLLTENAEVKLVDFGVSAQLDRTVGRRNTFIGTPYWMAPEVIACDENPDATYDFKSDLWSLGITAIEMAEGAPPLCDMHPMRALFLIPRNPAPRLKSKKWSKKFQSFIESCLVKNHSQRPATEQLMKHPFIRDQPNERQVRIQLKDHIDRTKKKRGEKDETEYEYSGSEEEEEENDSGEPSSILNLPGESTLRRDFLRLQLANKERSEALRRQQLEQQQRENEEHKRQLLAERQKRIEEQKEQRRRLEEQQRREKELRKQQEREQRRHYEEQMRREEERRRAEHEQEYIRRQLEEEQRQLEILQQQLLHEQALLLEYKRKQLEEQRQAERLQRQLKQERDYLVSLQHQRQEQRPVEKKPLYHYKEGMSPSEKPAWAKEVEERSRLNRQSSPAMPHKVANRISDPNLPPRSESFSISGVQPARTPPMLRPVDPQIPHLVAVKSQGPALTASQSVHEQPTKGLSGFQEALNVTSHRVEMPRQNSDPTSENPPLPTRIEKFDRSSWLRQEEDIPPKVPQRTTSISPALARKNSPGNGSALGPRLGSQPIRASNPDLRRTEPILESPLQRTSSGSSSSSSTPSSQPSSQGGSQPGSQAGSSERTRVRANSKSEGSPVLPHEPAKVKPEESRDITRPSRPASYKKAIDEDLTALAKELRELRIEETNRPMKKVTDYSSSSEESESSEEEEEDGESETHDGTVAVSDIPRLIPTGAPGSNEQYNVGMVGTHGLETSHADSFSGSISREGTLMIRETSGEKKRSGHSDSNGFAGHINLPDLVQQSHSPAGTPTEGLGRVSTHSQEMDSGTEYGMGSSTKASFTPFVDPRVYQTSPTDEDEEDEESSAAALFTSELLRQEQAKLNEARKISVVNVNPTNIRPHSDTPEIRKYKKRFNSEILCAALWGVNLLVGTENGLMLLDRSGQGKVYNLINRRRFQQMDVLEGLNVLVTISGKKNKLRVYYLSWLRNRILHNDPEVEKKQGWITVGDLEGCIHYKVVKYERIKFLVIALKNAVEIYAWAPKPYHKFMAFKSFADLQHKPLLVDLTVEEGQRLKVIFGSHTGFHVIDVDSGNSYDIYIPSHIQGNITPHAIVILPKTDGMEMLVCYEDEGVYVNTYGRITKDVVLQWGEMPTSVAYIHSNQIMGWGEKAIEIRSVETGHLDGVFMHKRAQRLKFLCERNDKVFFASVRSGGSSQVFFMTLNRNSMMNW
- Test Protocol: TNIK Human STE Kinase Enzymatic Radiometric Assay;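 further: remaining kinase activity relative to DMSO control, compound added without preincubation, reaction started with ATP, IC50 from variable-slope sigmoidal dose-response fit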
- Assay type: biochemical
- Run Parameters: ATP 70 μM; 40 min at room temperature; read-out: TNIK (IC50)
pIC50: −log10 of the molar value.

Compound: CC(C)n1cnc(-c2ccc(F)cc2)c1-c1cccc(C(=O)Nc2ccc(N3CCN(CCO)CC3)cc2)n1 [Compound 128]
Observed Measurement: 7.92 to 9.00
//
Compound: CC(C)n1cnc(-c2ccc(F)cc2)c1-c1nc(C(=O)Nc2ccc(N(CCO)CCO)cc2)c[nH]1 [Compound 116]
Observed Measurement: 6.92 to 7.92
//
Compound: CC(C)n1cnc(-c2ccc(F)c(F)c2)c1-c1nc(C(=O)Nc2ccc(N3CCN(CCO)CC3)cc2)c[nH]1 [Compound 146]
Observed Measurement: 6.92 to 7.92

// each listed compound needs a value for pIC50
1. CC1CN(c2ccc(NC(=O)c3c[nH]c(-c4c(-c5ccc(F)cc5)ncn4C(C)C)n3)cc2)CC(C)N1C (centres unmarked) [Compound 196]
2. CC(C)n1cnc(-c2ccc(F)cc2)c1-c1cccc(C(=O)Nc2ccc(CCC(=O)O)cc2)n1 [Compound 131]

["6.92 to 7.92", "7.92 to 9.00"]

---

Please provide measured IC50 for the entries that follow.
- Tested on: Collagen I (COL1A1) in LX-2 cells
- Test Protocol: Collagen and Alpha-SMA in LX-2 (Western blot after TGF-β stimulation);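 further: cells serum-starved in 0.4% FBS before treatment, lysates analysed by Western blot, DMSO-only wells as blank and TGF-β alone as maximal induction control, three independent experiments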
- Type: cell-based
- Run Parameters: Homo sapiens, 4 ng/ml TGF-β for 48 hours, Collagen I normalized to GAPDH

Some entries whose results are on file:
Compound: CN1CCN(c2ccc(NC(=O)c3c[nH]c(-c4c(-c5ccc(F)cc5)ncn4C4CCC(O)CC4)n3)cc2)CC1 (stereo not drawn)
Readout: IC50
Observed Measurement: < 100 pM
//
Compound: O=C(Nc1ccc(N2CCN(CC(F)(F)F)CC2)cc1)c1c[nH]c(-c2c(-c3ccc(F)cc3)ncn2CC(F)(F)F)n1
Readout: IC50
Observed Measurement: < 100 pM
//
Compound: CC(C)n1cnc(-c2ccc(F)cc2)c1-c1nc(C(=O)Nc2ccc(CCO)cc2)c[nH]1
Readout: IC50
Observed Measurement: 100 to 1000 pM
//
Compound: CC(C)n1cnc(-c2ccc(F)cc2)c1-c1ccc(C(=O)Nc2ccc(N3CCN(C)CC3)cc2)o1
Readout: IC50
Observed Measurement: < 100 pM

Could you tell me IC50 for each of these compounds? They are listed below.
1. CC1CN(c2ccc(NC(=O)c3c[nH]c(-c4c(-c5ccc(F)cc5)ncn4CC(F)(F)F)n3)cc2)CC(C)N1C (stereo not drawn)
2. CC1CN(c2ccc(NC(=O)c3c[nH]c(-c4c(-c5ccc(F)cc5)ncn4C(C)C)n3)cc2)CC(C)N1C (stereo not drawn)
3. CC(=O)N1CCN(c2ccc(NC(=O)c3c[nH]c(-c4c(-c5ccc(F)cc5)ncn4C(C)C)n3)cc2)CC1
4. CC(C)n1cnc(-c2ccc(F)cc2)c1-c1nc(C(=O)Nc2ccc(N3CCN(CCO)CC3)cc2)c[nH]1
5. CC(C)n1cnc(-c2ccc(F)c(F)c2)c1-c1nc(C(=O)Nc2ccc(N3CCN(CCO)CC3)cc2)c[nH]1

1: < 100 pM; 2: < 100 pM; 3: 100 to 1000 pM; 4: 100 to 1000 pM; 5: 100 to 1000 pM

Parameters: items (list). Returns: IC50 for each item.
1. CC(C)n1cnc(-c2ccc(Cl)cc2)c1-c1nc(C(=O)Nc2ccc(N3CCN(CCO)CC3)cc2)c[nH]1
2. O=C(Nc1ccccc1F)c1occc1-c1c(-c2ccc(F)cc2)ncn1CC1CCOC1 (stereo not drawn)
3. O=C(NC1CCOCC1)c1ccc(-c2c(-c3ccc(F)cc3)ncn2C2CCCC2)o1
4. O=C(Nc1ccccc1F)c1occc1-c1c(-c2cccnc2)ncn1C1CCCC1
5. CN1CCN(c2ccc(NC(=O)c3c[nH]c(-c4c(-c5ccc(F)cc5)ncn4CC(F)(F)F)n3)cc2)CC1=O

100 to 1000 pM
> 1000 pM
> 1000 pM
> 1000 pM
100 to 1000 pM

Field: IC50 (Collagen I (COL1A1) in LX-2 cells). Entry: CN1CCN(c2ccc(NC(=O)c3c[nH]c(-c4c(-c5ccc(F)cc5)ncn4[C@H]4CC[C@H](O)CC4)n3)cc2)CC1
100 to 1000 pM
